# PROCEDURE_TEXT: NCI Yeast Anticancer Drug Screen. Data for the mlh1 rad18 strain (AID 175)
# EXPERIMENTAL_PARAMETERS: S. cerevisiae mlh1 rad18 strain growth inhibition; at 50.0 µM; stronger effect = higher value
About 79,000 compounds went through this panel and 15% of them were active in at least one assay; those are over-represented in the sample as a whole.
ENDPOINT_NAME: growth inhibition (%)
Answers are plain numbers, in %.

Solved entries:
Task: What value of growth inhibition has been reported for the following molecule? O=[N+]([O-])c1ccc(OS(=O)(=O)c2ccccc2)cc1
Result: 9.65

Task: And for COC(=O)c1ccccc1C#CC#Cc1ccccc1C(=O)OC ?
Result: -3.5

Task: And for O=[N+]([O-])c1ccc(N/N=C2\C=C(c3ccccc3)C(c3ccccc3)C2)c([N+](=O)[O-])c1 (stereo unspecified) ?
Result: -14.2

Task: And for CCOC(=O)c1ccnc2ccccc12 ?
Result: 3.7

Task: And for Nc1nc(N)nc(-c2ccccc2-c2nc(N)nc(N)n2)n1 ?
Result: 6.65

New cases:
Task: What value of growth inhibition has been reported for the following molecule? COc1cc2c(cc1C1=NC(C)(C)CO1)OCO2
Result: -49.2

Measured values drawn from PubChem BioAssay (NCI) for this set.
